# Tested on: T-47D spheroids with HUVEC/MSC, viability
# Assay explanation: Anticancer human tumor T-47D cell line growth inhibition [PI3K]
# Assay conditions: second compound 3.16 µM; first compound 0.01 µM; stronger effect = lower value
Property: viability, T/C (%)

Compound	Measurement units	Endpoint value
CC(C)n1nc(-c2ccc3oc(N)nc3c2)c2c(N)ncnc21 + Cc1nc(NC(=O)N2CCCC2C(N)=O)sc1-c1ccnc(C(C)(C)C(F)(F)F)c1	%	42.7
CC(=O)c1c(C)c2cnc(Nc3ccc(N4CCNCC4)cn3)nc2n(C2CCCC2)c1=O + Cc1nc(NC(=O)N2CCCC2C(N)=O)sc1-c1ccnc(C(C)(C)C(F)(F)F)c1	%	64.2
CCN1CCN(Cc2ccc(Nc3ncc(F)c(-c4cc(F)c5nc(C)n(C(C)C)c5c4)n3)nc2)CC1 + Cc1nc(NC(=O)N2CCCC2C(N)=O)sc1-c1ccnc(C(C)(C)C(F)(F)F)c1	%	49.2
CCN1CCN(Cc2ccc(Nc3ncc(F)c(-c4cc(F)c5nc(C)n(C(C)C)c5c4)n3)nc2)CC1 + CC(Nc1ncnc2nc[nH]c12)c1cc2cccc(Cl)c2c(=O)n1-c1ccccc1	%	80.9
CC(C)n1nc(-c2ccc3oc(N)nc3c2)c2c(N)ncnc21 + CC(Nc1ncnc2nc[nH]c12)c1cc2cccc(Cl)c2c(=O)n1-c1ccccc1	%	76.2
Cn1ncnc1[C@H]1c2n[nH]c(=O)c3cc(F)cc(c23)N[C@@H]1c1ccc(F)cc1 + Cc1nc(NC(=O)N2CCCC2C(N)=O)sc1-c1ccnc(C(C)(C)C(F)(F)F)c1	%	63.6
CC(=O)c1c(C)c2cnc(Nc3ccc(N4CCNCC4)cn3)nc2n(C2CCCC2)c1=O + CC(Nc1ncnc2nc[nH]c12)c1cc2cccc(Cl)c2c(=O)n1-c1ccccc1	%	85.1
Cn1ncnc1[C@H]1c2n[nH]c(=O)c3cc(F)cc(c23)N[C@@H]1c1ccc(F)cc1 + CC(Nc1ncnc2nc[nH]c12)c1cc2cccc(Cl)c2c(=O)n1-c1ccccc1	%	83.2

----------
A collection of molecules and their measured viability, T/C
# Test system: T-47D spheroids with HUVEC/MSC, viability
# Assay explanation: Anticancer human tumor T-47D cell line growth inhibition [PI3K];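 further: spheroids exposed to agents for seven days before reading; percent of DMSO vehicle control luminescence so 100% = untreated growth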
# Assay conditions: second compound 0.1 µM; first compound 0.000316 µM; stronger effect = lower value

Molecule	Tested target	viability, T/C
Cn1ncnc1[C@H]1c2n[nH]c(=O)c3cc(F)cc(c23)N[C@@H]1c1ccc(F)cc1 + CC(Nc1ccc2c(c1)OCCn1cc(N3C(=O)OCC3C(F)F)nc1-2)C(N)=O	T-47D spheroids with HUVEC/MSC, viability	79.2%
Cn1ncnc1[C@H]1c2n[nH]c(=O)c3cc(F)cc(c23)N[C@@H]1c1ccc(F)cc1 + CC(Nc1ncnc2nc[nH]c12)c1cc2cccc(Cl)c2c(=O)n1-c1ccccc1	T-47D spheroids with HUVEC/MSC, viability	110%
CC(C)n1nc(-c2ccc3oc(N)nc3c2)c2c(N)ncnc21 + CC(Nc1ccc2c(c1)OCCn1cc(N3C(=O)OCC3C(F)F)nc1-2)C(N)=O	T-47D spheroids with HUVEC/MSC, viability	76%

----------
# System: T-47D spheroids with HUVEC/MSC, viability
# Assay explanation: Anticancer human tumor T-47D cell line growth inhibition [PI3K];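 further: spheroids exposed to agents for seven days before reading; percent of DMSO vehicle control luminescence so 100% = untreated growth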
# Assay conditions: second compound 0.1 µM; first compound 0.000316 µM; stronger effect = lower value

Molecule	viability, T/C / %
CC(C)n1nc(-c2ccc3oc(N)nc3c2)c2c(N)ncnc21 + CC(Nc1ncnc2nc[nH]c12)c1cc2cccc(Cl)c2c(=O)n1-c1ccccc1	92.2
CC(=O)c1c(C)c2cnc(Nc3ccc(N4CCNCC4)cn3)nc2n(C2CCCC2)c1=O + COc1c(OCCCN2CCOCC2)ccc2c3n(c(=NC(=O)c4cnc(N)nc4)nc12)CCN3	35.3
CC(=O)c1c(C)c2cnc(Nc3ccc(N4CCNCC4)cn3)nc2n(C2CCCC2)c1=O + CC(Nc1ccc2c(c1)OCCn1cc(N3C(=O)OCC3C(F)F)nc1-2)C(N)=O	84.7
Cn1ncnc1[C@H]1c2n[nH]c(=O)c3cc(F)cc(c23)N[C@@H]1c1ccc(F)cc1 + COc1c(OCCCN2CCOCC2)ccc2c3n(c(=NC(=O)c4cnc(N)nc4)nc12)CCN3	40.9
Cn1ncnc1[C@H]1c2n[nH]c(=O)c3cc(F)cc(c23)N[C@@H]1c1ccc(F)cc1 + Cc1nc(NC(=O)N2CCCC2C(N)=O)sc1-c1ccnc(C(C)(C)C(F)(F)F)c1	106
CC(=O)c1c(C)c2cnc(Nc3ccc(N4CCNCC4)cn3)nc2n(C2CCCC2)c1=O + Cc1nc(NC(=O)N2CCCC2C(N)=O)sc1-c1ccnc(C(C)(C)C(F)(F)F)c1	101
CC(C)n1nc(-c2ccc3oc(N)nc3c2)c2c(N)ncnc21 + Cc1nc(NC(=O)N2CCCC2C(N)=O)sc1-c1ccnc(C(C)(C)C(F)(F)F)c1	110
CC(=O)c1c(C)c2cnc(Nc3ccc(N4CCNCC4)cn3)nc2n(C2CCCC2)c1=O + CC(Nc1ncnc2nc[nH]c12)c1cc2cccc(Cl)c2c(=O)n1-c1ccccc1	91.2
CC(C)n1nc(-c2ccc3oc(N)nc3c2)c2c(N)ncnc21 + COc1c(OCCCN2CCOCC2)ccc2c3n(c(=NC(=O)c4cnc(N)nc4)nc12)CCN3	46

----------
Measured viability, T/C accompanies every entry in the list below.
# System: T-47D spheroids with HUVEC/MSC, viability
# Assay explanation: Anticancer human tumor T-47D cell line growth inhibition [PI3K];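 further: spheroids exposed to agents for seven days before reading; percent of DMSO vehicle control luminescence so 100% = untreated growth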
# Assay conditions: second compound 0.1 µM; first compound 1 µM; stronger effect = lower value

Compound	Tested target	viability, T/C, %
CC1(C)CCC(Nc2ncc(C(F)(F)F)c(-c3c[nH]c4c(P(C)(C)=O)c(C#N)ccc34)n2)CN1 (stereo not drawn) + Cc1nc(NC(=O)N2CCCC2C(N)=O)sc1-c1ccnc(C(C)(C)C(F)(F)F)c1	T-47D spheroids with HUVEC/MSC, viability	64.6
Cn1nccc1Nc1nccc(-c2ccn(C(CO)c3ccc(Cl)c(F)c3)c(=O)c2)n1 (stereo not drawn) + Cc1nc(NC(=O)N2CCCC2C(N)=O)sc1-c1ccnc(C(C)(C)C(F)(F)F)c1	T-47D spheroids with HUVEC/MSC, viability	89.4
Cn1nccc1Nc1nccc(-c2ccn(C(CO)c3ccc(Cl)c(F)c3)c(=O)c2)n1 (stereo not drawn) + CC(Nc1ccc2c(c1)OCCn1cc(N3C(=O)OCC3C(F)F)nc1-2)C(N)=O	T-47D spheroids with HUVEC/MSC, viability	92.9

----------
# Test system: T-47D spheroids with HUVEC/MSC, viability
# Assay explanation: Anticancer human tumor T-47D cell line growth inhibition [PI3K];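 further: spheroids exposed to agents for seven days before reading; percent of DMSO vehicle control luminescence so 100% = untreated growth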
# Assay conditions: second compound 0.0316 µM; first compound 10 µM; stronger effect = lower value
# Source text: Combinatorial screen of targeted agents with the PI3K inhibitors inavolisib, alpelisib, duvelisib, and copanlisib in multi-cell type tumor spheroids A high-throughput screen of multi-cell type tumor spheroids was designed to identify active combinations of targeted small molecules and PI3K pathway inhibitors. […] Compounds. […] If the clinical Cmax for an agent had not been determined, the highest concentration tested was 10 microM. […]

Molecule	viability, T/C [%]
Cn1ncc(Cl)c1-c1cc(C(=O)NC(CN)Cc2cccc(F)c2)sc1Cl (stereo unspecified) + COc1c(OCCCN2CCOCC2)ccc2c3n(c(=NC(=O)c4cnc(N)nc4)nc12)CCN3	73.2
CNC(=O)c1ccc(N2C(=S)N(c3ccc(C#N)c(C(F)(F)F)c3)C(=O)C2(C)C)cc1F + Cc1nc(NC(=O)N2CCCC2C(N)=O)sc1-c1ccnc(C(C)(C)C(F)(F)F)c1	87.9
CC(C)NCC(C(=O)N1CCN(c2ncnc3c2C(C)CC3O)CC1)c1ccc(Cl)cc1 (stereo unspecified) + CC(Nc1ccc2c(c1)OCCn1cc(N3C(=O)OCC3C(F)F)nc1-2)C(N)=O	51.6
Cn1ncc(Cl)c1-c1cc(C(=O)NC(CN)Cc2cccc(F)c2)sc1Cl (stereo unspecified) + CC(Nc1ccc2c(c1)OCCn1cc(N3C(=O)OCC3C(F)F)nc1-2)C(N)=O	90.9
Cn1nccc1Nc1nccc(-c2ccn(C(CO)c3ccc(Cl)c(F)c3)c(=O)c2)n1 (stereo unspecified) + COc1c(OCCCN2CCOCC2)ccc2c3n(c(=NC(=O)c4cnc(N)nc4)nc12)CCN3	69.6
CC1(C)CCC(Nc2ncc(C(F)(F)F)c(-c3c[nH]c4c(P(C)(C)=O)c(C#N)ccc34)n2)CN1 (stereo unspecified) + Cc1nc(NC(=O)N2CCCC2C(N)=O)sc1-c1ccnc(C(C)(C)C(F)(F)F)c1	45.1
CNC(=O)c1ccc(N2C(=S)N(c3ccc(C#N)c(C(F)(F)F)c3)C(=O)C2(C)C)cc1F + CC(Nc1ncnc2nc[nH]c12)c1cc2cccc(Cl)c2c(=O)n1-c1ccccc1	79.6
CNC(=O)c1ccc(N2C(=S)N(c3ccc(C#N)c(C(F)(F)F)c3)C(=O)C2(C)C)cc1F + COc1c(OCCCN2CCOCC2)ccc2c3n(c(=NC(=O)c4cnc(N)nc4)nc12)CCN3	62
CC1(C)CCC(CN2CCN(c3ccc(C(=O)NS(=O)(=O)c4ccc(NCC5CCOCC5)c([N+](=O)[O-])c4)c(Oc4cnc5[nH]ccc5c4)c3)CC2)=C(c2ccc(Cl)cc2)C1 + CC(Nc1ncnc2nc[nH]c12)c1cc2cccc(Cl)c2c(=O)n1-c1ccccc1	79.5
CC(Cn1ccc(-c2ccc(C#N)c(Cl)c2)n1)NC(=O)c1cc(C(C)O)[nH]n1 (stereo unspecified) + CC(Nc1ncnc2nc[nH]c12)c1cc2cccc(Cl)c2c(=O)n1-c1ccccc1	51
C=CC(=O)N1CCN(c2nc(=O)n(-c3c(C)ccnc3C(C)C)c3nc(-c4c(O)cccc4F)c(F)cc23)C(C)C1 (stereo unspecified) + CC(Nc1ccc2c(c1)OCCn1cc(N3C(=O)OCC3C(F)F)nc1-2)C(N)=O	88.3
